Catalogue of CC50 readings, one per entry.
Tested on: HMVEC cells stimulated with VEGF 165
Test: VEGF driven HMVEC proliferation screen
Format: cell-based
Settings: VEGF 165 10 ng/mL, 6 days, Alamar blue; read-out: VEGF LC50
Procedure: HMVEC cells were plated on collagen-coated plates at 2500 cells/well for 24 hours. Various concentrations of test compounds were then added to duplicate plates. […] Anti-FGF antibody (final concentration of 5 μg/mL) was added to four control wells as a standard inhibitor. At the same time the compounds were added, a T-zero plate was generated (Alamar blue was added to a plate and read after three hours). The plates with the compounds were incubated for one hour at 37° C., 5% carbon dioxide. […]
The reply should be a number in nM, with the unit left off.

Below, each entry is followed by its recorded CC50 result.
COc1ccc(NC(=O)c2ccccn2)c2ncccc12 [Compound 3]	120
O=C(Nc1ccc(Oc2ccccc2)c2cccnc12)c1ccccn1 [Compound 12]	1000
O=C(Nc1cccc2cccnc12)c1cc(N2CCCCC2)ccn1 [Compound 43]	400
CN1CCN(c2ccnc(C(=O)Nc3cccc4cccnc34)c2)CC1 [Compound 101]	15
O=C(Nc1cc(-c2ccccc2)cc2cccnc12)c1ccccn1 [Compound 10]	260

Enquiry: Look up CC50 with HMVEC cells stimulated with VEGF 165 for this compound: O=C(Nc1cccc2cccnc12)c1cc(N2CCSCC2)ccn1 [Compound 44]
Return: 180

* * *

System: HMVEC cells stimulated with VEGF 165
Experiment: VEGF driven HMVEC proliferation screen
Assay type: cell-based
Hi! Could you tag entries with CC50 below 70 nM as Met, and those at or above as Not met? Much appreciated.

Cc1ccc(NC(=O)c2ccccn2)c2ncccc12 [Compound 14]	Not met

Switching to the query record.
Enquiry: Does the reported CC50 of the following compound sit strictly below 70 nM? O=C(Nc1cccc2cccnc12)c1ccccn1 [Compound 1]
Return: Met

* * *

Tested on: HMVEC cells stimulated with b-FGF
Test: b-FGF driven HMVEC proliferation screen
Type: cell-based
// boundary case: CC50 equal to 200 nM maps to Not met; strictly smaller maps to Met

// known answers, use as guide
CCCN(C)c1ccccc1NC(=O)c1ccccn1	Not met
Cc1cc(NC(=O)c2ccccn2)c2ncccc2c1	Met

Enquiry: Determine if `O=S(=O)(Nc1cc(Cl)c(Cl)c2cccnc12)c1ccccn1` shows CC50 strictly lower than 200 nM.
Return: Not met

Enquiry: Try the compound `O=C(Nc1cccc2cccnc12)c1cc(N2CCC(O)CC2)ccn1`
Return: Not met

Enquiry: What do you have for `O=C(Nc1cccc2cccnc12)c1ncccc1OCCN1CCOCC1` ?
Return: Not met

Enquiry: Proceed to `COc1ccnc(C(=O)Nc2cccc3cccnc23)c1`
Return: Met

Enquiry: Moving on to `O=C(Nc1cccc2cccnc12)c1cc(N2CCOCC2)ccn1`
Return: Met

* * *

Catalogue of CC50 values
Test system: HMVEC cells stimulated with VEGF 165
Assay: VEGF driven HMVEC proliferation screen
Type: cell-based
Settings: VEGF 165 10 ng/mL, 6 days, Alamar blue; read-out: VEGF LC50
Report field: quantity (unit follows the number).

COc1cc(NC(=O)c2cc(N3CCN(C)CC3)ccn2)c2ncccc2c1 [Compound 105]	0.091 µM
CN1CCC[C@H]1C(=O)Nc1cccc2cccnc12 [Compound 107]	0.46 µM

API: the following record is the query input.
Enquiry: What does the record list as CC50 for CN(C)CCCOc1cccnc1C(=O)Nc1cccc2cccnc12 [Compound 49] ?
Return: 1.7 µM
